# Test: qHTS of pediatric cancer cell lines to identify multiple opportunities for drug repurposing: Primary screen for MG 63 (6-TG R) cells (AID 1347105); also: nearly all actives have a fitted effect of over 50% in size
# Condition Parameters: MG 63 (6-TG R) viability, CellTiter-Glo, 48 h; series mostly up to 46 µM
Results filed as inconclusive are left out. Calls of active or inactive are those of the source. Calls follow the shape of the dose curve; as a rule, active = well fitted cell-killing curve with a large enough effect; inconclusive = small, poorly fitted or top-dose-only effect; inactive = no such curve, though single readings can be large or run the other way.
Select the matching outcome among active, inactive

// known answers, use as guide
| Compound | Classification |
| --- | --- |
| CC[C@H](CC[C@@H](C)[C@H]1CC[C@H]2[C@@H]3CC=C4C[C@@H](O)CC[C@]4(C)[C@@H]3CC[C@]12C)C(C)C | inactive |
| CCNC(=O)Nc1ccc(-c2nc3c(c(N4CCOC[C@H]4C)n2)CCN(C2COC2)C3)cc1 | active |
| C=C[C@@H]1CN2CCC1C[C@H]2[C@H](O)c1ccnc2ccc(OC)cc12 (stereo not given in full) | inactive |
| CC(=O)NC(CS)C(=O)O (stereo not given) | inactive |
| CCN(CC)CCNC(=O)c1c(C)[nH]c(C=C2C(=O)Nc3ccc(F)cc32)c1C | active |
| CC(C=CC(=O)NO)=C[C@@H](C)C(=O)c1ccc(N(C)C)cc1 | active |
| C[C@H](NCc1ccc(OCc2cccc(F)c2)cc1)C(N)=O | active |
| Cc1cncc2cccc(S(=O)(=O)N3CCCN(C(=O)CN)C[C@@H]3C)c12 | inactive |

Recorded test call requested for `C=CC(=O)Nc1ccc2ncnc(Nc3ccc(OCc4cccc(F)c4)c(Cl)c3)c2c1`
active

Same question, `C[C@@H](NCc1cc2ccccc2[nH]1)c1cccc2ccccc12` this time
inactive

----------
# Test: qHTS of pediatric cancer cell lines to identify multiple opportunities for drug repurposing: Primary screen for SJ-GBM2 cells (AID 1347091); also: potency is read from the fitted curve at half-maximal effect
# Condition Parameters: SJ-GBM2 viability, CellTiter-Glo luminescence, 48 h; series mostly up to 46 µM
Results filed as inconclusive are left out. Activity calls are given as the source filed them. Calls come from the whole dose curve; as a rule, active = well fitted cell-killing curve with a large enough effect; inconclusive = small, poorly fitted or top-dose-only effect; inactive = no such curve, though single readings can be large or run the other way.
Measured Attribute: Potency

| Structure String | Potency |
| --- | --- |
| Nc1ccc(C(=O)Nc2cccc(-c3nc(N4CCOCC4)c4oc5ncccc5c4n3)c2)cn1 | 3.72 µM (active) |
| CC(=O)O[C@H]1C[C@@H]2CC[C@H]3[C@H]4C[C@H]([N+]5(C)CCCCC5)[C@@H](OC(C)=O)[C@@]4(C)CC[C@@H]3[C@@]2(C)C[C@H]1[N+]1(C)CCCCC1 | inactive |
| CC(C)(C)[N+]([O-])=Cc1ccc(S(=O)(=O)O)cc1S(=O)(=O)O | inactive |
| CN[C@H](CC(C)C)C(=O)N[C@H]1C(=O)N[C@@H](CC(N)=O)C(=O)N[C@@H]2C(=O)N[C@H]3C(=O)N[C@H](C(=O)N[C@H](C(=O)O)c4cc(O)cc(O)c4-c4cc3ccc4O)[C@H](O)c3ccc(c(Cl)c3)Oc3cc2cc(c3O[C@@H]2O[C@H](CO)[C@@H](O)[C@H](O)[C@@H]2O[C@H]2C[C@](C)(N)[C@H](O)[C@H](C)O2)Oc2ccc(cc2Cl)[C@H]1O | inactive |
| O=C(O)C=Cc1ccc(Cn2ccnc2)cc1 | inactive |

May I ask what Potency has been recorded for `FC(F)(F)c1ccc(Nc2nc3ccc(Oc4ccnc(-c5ncc(C(F)(F)F)[nH]5)c4)cc3[nH]2)cc1` ?
16.6 µM (active)

----------
# Test: Quantitative High-Throughput drug screen in 47 multiple myeloma cell lines against the NCATS MIPE library collection: KMS34_JCRB cell viability assay (AID 1918985); also: nearly all actives have a fitted effect of over 40% in size
# Condition Parameters: KMS34 myeloma viability, CellTiter-Glo ATP luminescence, 48 h; series mostly up to 45.8 µM
# Excerpt: PI: Beverly A. Mock Ph.D. Laboratory of Cancer Biology and Genetics, Center for Cancer Research, National Cancer Institute, National Institute of Health, Bethesda, Maryland […] 5; Detector; 425V; Luminescence; Viewlux PerkinElmer. […] 1. […] Briefly, the corresponding myeloma cell lines were screened in 1,536-well plates with 500 cells, 5-uL per well for inhibition of cell viability (assessed by measuring ATP levels with CellTiterGlo). […]
Records with an inconclusive call do not appear. Activity calls are given as the source filed them. Calls come from the whole dose curve; as a rule, active = well fitted cell-killing curve with a large enough effect; inconclusive = small, poorly fitted or top-dose-only effect, or effect the other way; inactive = no such curve, though single readings can be large or run the other way.
Select the matching outcome among 1 for active, 0 for inactive

// known answers, use as guide
| Structure String | Classification |
| --- | --- |
| CCC[C@H]1C[C@H](C(=O)N[C@@H]([C@@H]2O[C@@H](SC)[C@@H](O)[C@@H](O)[C@@H]2O)[C@H](C)Cl)N(C)C1 | 0 |
| COc1cc(OC)cc(-c2ccc3ncc4ccc(=O)n(-c5ccc(N6CCNCC6)c(C(F)(F)F)c5)c4c3c2)c1 | 1 |
| CN1C(C(=O)Nc2ccccn2)=C(O)c2sc(Cl)cc2S1(=O)=O | 1 |
| NC(=O)Nc1sc(-c2ccc(F)cc2)cc1C(N)=O | 1 |

Please find the next molecule below.
Recorded test call requested for `CC(=O)O[C@]1(C(C)=O)CC[C@H]2[C@@H]3C=C(C)C4=CC(=O)CC[C@]4(C)[C@@H]3CC[C@@]21C`
0

----------
# Target: Phospholipid hydroperoxide glutathione peroxidase GPX4 (Homo sapiens)
# Test: Primary qHTS Assay for Inhibitors of Recombinant Selenoprotein Glutathione Peroxidase 4 (GPX4) (AID 1845192); also: nearly all actives have a fitted effect of over 65% in size
# Condition Parameters: recombinant GPX4, GR-coupled NADPH fluorescence, 15 min; series mostly up to 50 µM
Inconclusive results are not listed. Calls of active or inactive are those of the source. Calls follow the shape of the dose curve; as a rule, active = well fitted inhibition curve with a large enough effect; inconclusive = small, poorly fitted or top-dose-only effect; inactive = flat fitted curve, though single readings scatter.
Select the matching outcome among active, inactive

// known answers, use as guide
| Structure String | Target | Classification |
| --- | --- | --- |
| FC(F)c1nc2ccccc2n1-c1nc(N2CCOCC2)nc(N2CCOCC2)n1 | Phospholipid hydroperoxide glutathione peroxidase GPX4 (Homo sapiens) | inactive |
| O=C(c1ccc(F)cc1)N1CCC[C@H](c2nc(-c3ccc(F)cc3)no2)C1 | Phospholipid hydroperoxide glutathione peroxidase GPX4 (Homo sapiens) | inactive |
| CN(C)CC(=O)N1CCC(c2ccc(NC(=O)c3ncc(C#N)[nH]3)c(C3=CCCCC3)c2)CC1 | Phospholipid hydroperoxide glutathione peroxidase GPX4 (Homo sapiens) | inactive |
| c1cc(N[C@@H]2CCNC2)nc(-c2cnc3ccc(-c4cn[nH]c4)cn23)c1 | Phospholipid hydroperoxide glutathione peroxidase GPX4 (Homo sapiens) | active |

Please find the next compound below.
Recorded test call requested for `Cc1cc(Nc2ncc3c(n2)N(C)C(=O)N(c2cc(NC(=O)c4cccc(C(F)(F)F)c4)ccc2C)C3)n(C)n1`
inactive

----------
# Test: qHTS of pediatric cancer cell lines to identify multiple opportunities for drug repurposing: Primary screen for SJ-GBM2 cells (AID 1347091)
# Condition Parameters: SJ-GBM2 viability, CellTiter-Glo luminescence, 48 h; series mostly up to 46 µM
# Method: Drug repurposing or repositioning has been offered as a strategy for drug development in oncology programs. […] [1] Shen, M et al. Quantitative high-throughput phenotypic screening of pediatric cancer cell lines identifies multiple opportunities for drug repurposing. […] Cells were assayed in growth media at a density of 500-1,000 cells/well. […] After a 15 min incubation at room temperature, samples were analyzed for luminescence intensity using a ViewLux High-throughput CCD imager equipped with clear filters.
Results filed as inconclusive are left out. Calls of active or inactive are those of the source. The call rests on the fitted dose curve; in most records, active means well fitted cell-killing curve with a large enough effect; inconclusive means small, poorly fitted or top-dose-only effect; inactive means no such curve, though single readings can be large or run the other way.
Select the matching outcome among true (1) for active, false (0) for inactive

// known answers, use as guide
| Compound | Classification |
| --- | --- |
| CC(C)c1cnn2c(NCc3ccccc3)cc(NCCCCCCN)nc12 | true (1) |
| O=C(NC1CC1)c1cccc(-c2ccc3c(NC(=O)C4CC4)n[nH]c3c2)c1 | true (1) |
| O=C(C=CC=Cc1ccc2c(c1)OCO2)N1CCCCC1 | false (0) |
| OCC(O)C(O)C(O)CO (centres undefined) | false (0) |
| COc1ccc(S(=O)(=O)Nc2cc(-c3c(O)ccc4ccccc34)c(O)c3ccccc23)cc1 | true (1) |

Recorded test call requested for `Cc1nc(NC(=O)N2CCC[C@@H]2C(N)=O)sc1-c1ccnc(C(C)(C)C(F)(F)F)c1`
true (1)

Same question, `C=CCNc1c(O)cc2c(O)c1C[C@@H](C)C[C@H](OC)[C@@H](O)[C@@H](C)C=C(C)[C@H](OC(N)=O)[C@@H](OC)C=CC=C(C)C(=O)N2` this time
true (1)

Same question, C[C@](Cc1c[nH]c2ccccc12)(NC(=O)OC1C2CC3CC(C2)CC1C3)C(=O)NC[C@H](NC(=O)CCC(=O)O)c1ccccc1 (some centres undefined) this time
false (0)

Same question, `O=C(C[C@@H]1CC=CCCC(=O)O[C@H](c2ccccc2)CNC1=O)NCc1ccc(Cl)cc1` this time
false (0)

----------
# Test: qHTS of pediatric cancer cell lines to identify multiple opportunities for drug repurposing: Primary screen for OHS-50 cells (AID 1347103); also: nearly all actives have a fitted effect of over 40% in size; also: potency is read from the fitted curve at half-maximal effect
# Condition Parameters: OHS-50 osteosarcoma viability, CellTiter-Glo luminescence, 48 h; series mostly up to 57.3 µM
Inconclusive results are not listed. Active and inactive are the calls of the source. The call rests on the fitted dose curve; in most records, active means well fitted cell-killing curve with a large enough effect; inconclusive means small, poorly fitted or top-dose-only effect; inactive means no such curve, though single readings can be large or run the other way. Positions of bridges follow the written chain, without caps; N, C: chain ends. Non-standard residues stand in square brackets, D forms with d. Residues, ends and D or L forms follow the SMILES beside them. ξ: configuration not given here. *: point of attachment. Octanoyl(6-Me) = CCC(C)CCCCC(=O)*; ξThr(3R) = C[C@@H](O)C(N)C(=O)O; dDab = NCC[C@@H](N)C(=O)O; Dab = NCC[C@H](N)C(=O)O
Measured Attribute: Potency

Answered cases to consult:
| Compound | Measured Attribute | Reading |
| --- | --- | --- |
| O=C(O)C(=O)Nc1cccc(C2=NN=N[N]2)c1 | Potency | inactive |
| CN1[C@H]2CC(OC(=O)[C@@H](CO)c3ccccc3)C[C@H]1[C@H]1O[C@H]12 (stereo partly specified) | Potency | inactive |
| N#Cc1c(NC(=O)c2cccc3ccccc23)sc2c1CCCC2 | Potency | 0.485 µM (active) |
| CCC(C)CCCCC(=O)N[C@@H](CCN)C(=O)NC(C(=O)N[C@H](CCN)C(=O)N[C@@H]1CCNC(=O)C([C@@H](C)O)NC(=O)[C@@H](CCN)NC(=O)[C@@H](CCN)NC(=O)[C@@H](CC(C)C)NC(=O)[C@H](Cc2ccccc2)NC(=O)[C@H](CCN)NC1=O)[C@@H](C)O (stereo partly drawn) ({Octanoyl(6-Me)}-[Dab][ξThr(3R)][dDab][dDab][Dab]F[dL][dDab][dDab][ξThr(3R)]; lactam 4-C) | Potency | inactive |
| O=C(NC1CC1)c1cccc(-c2ccc3c(NC(=O)C4CC4)n[nH]c3c2)c1 | Potency | 3.85 µM (active) |
| COC1=C2C[C@@H](C)C[C@H](OC)[C@@H](O)[C@@H](C)C=C(C)[C@H](OC(N)=O)[C@@H](OC)C=CC=C(C)C(=O)NC(=CC1=O)C2=O | Potency | 6.85 µM (active) |

Okay, next one:
May I ask what Potency has been recorded for `COc1ccc(Nc2nccc(NCCO)n2)cc1` ?
inactive
